tested on: PPARg DBDmut IVT, anti-PPARg (DBD mutation: PPARg1 K132A/R137A, NR concentration 270 nM); experiment: PBM binding z-score (relative to random genomic background probes); higher = stronger binding; sequences stand for … in GC…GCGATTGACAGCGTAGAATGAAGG
Category scheme (PBM binding z-score): low interval: < -0.06; middle interval: ≥ -0.06 and < 0.6; high interval: ≥ 0.6

Past entries and their recorded results:
INSERT INTO measurements (sequence_content, discrete_label) VALUES
  ('TCTAGTTGCTCACGGAGGTCACACACGACGGGTA', 'middle interval'),
  ('TGTGCTAGGTCAACGATGGTCAGCTAATCTGCTA', 'middle interval'),
  ('TTACCTAGGTGAAAGGTCGTTGATGCACGCCTTG', 'high interval'),
  ('TCGAGTAGGTTACCAATGGGGCACTCAGCTTTCT', 'middle interval'),
  ('TCTCGGAGGACACGAAGGTCAGAGTTTTCCAGAG', 'low interval'),
  ('TATACAGGGTCAAAGGCCAGAGGACGAATGTCGA', 'high interval'),
  ('GGAACGAGGGCATTCGAGTTAATAGCATGGCGAT', 'low interval'),
  ('CAAACTAGGTCACCGGAAGGTCAAAGTACGCATG', 'high interval'),
  ('TATCGGAGGACACGAAGGTCAGAGCTTTCCAGAG', 'low interval'),
  ('ACTTACGGGGCAACGAGGTTATAGCACGCGTATA', 'middle interval');

Pending sequence:
Class for CCGGCTGGGGCATAAGGTTACCATAAGCCAGCCC ? low interval
